Biological target: sEH (Homo sapiens, UniProt P34913)
Construct: purchased Cayman Chemical Company 10011669
Sequence (P34913 1-555): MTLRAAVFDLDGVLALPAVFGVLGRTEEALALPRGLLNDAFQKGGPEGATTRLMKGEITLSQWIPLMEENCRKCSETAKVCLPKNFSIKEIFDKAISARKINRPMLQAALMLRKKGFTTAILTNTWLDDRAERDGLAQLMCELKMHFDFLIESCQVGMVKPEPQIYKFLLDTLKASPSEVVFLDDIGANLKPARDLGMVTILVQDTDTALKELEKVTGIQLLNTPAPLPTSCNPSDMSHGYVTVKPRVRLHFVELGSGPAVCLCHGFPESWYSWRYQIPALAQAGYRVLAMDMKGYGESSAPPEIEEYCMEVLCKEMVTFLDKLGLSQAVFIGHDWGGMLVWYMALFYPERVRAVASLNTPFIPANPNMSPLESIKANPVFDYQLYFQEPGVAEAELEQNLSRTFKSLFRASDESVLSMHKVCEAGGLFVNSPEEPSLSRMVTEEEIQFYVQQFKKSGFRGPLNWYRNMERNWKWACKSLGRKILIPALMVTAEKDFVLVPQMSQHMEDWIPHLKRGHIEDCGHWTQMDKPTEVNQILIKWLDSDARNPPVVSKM
Assay: sEH inhibition assay with PHOME fluorescent substrate
Assay type: biochemical
Details: PHOME substrate; mean ± SD (n = 3); read-out: Inhibition of Compounds on sEH, IC50
observable: IC50 (µM)
One number for each entry, in µM.

Reference set (5 entries):
{"compound": "COc1cc2ccc(=O)oc2cc1O", "observable": "IC50", "unitDescriptor": "µM", "reportedValue": 0.2}
{"compound": "Oc1cc(O)cc(-c2cc3ccc(O)cc3o2)c1", "observable": "IC50", "unitDescriptor": "µM", "reportedValue": 9.9}
{"compound": "OCC1OC(Oc2cc(O)cc(-c3cc4ccc(O)cc4o3)c2)C(O)C(O)C1O (stereo not drawn) [Compound 7, moracin M 3’-O-β-glucopyranoside]", "observable": "IC50", "unitDescriptor": "µM", "reportedValue": 7.7}
{"compound": "COc1cc2ccc(=O)oc2cc1OC1OC(CO)C(O)C(O)C1O (stereo not drawn)", "observable": "IC50", "unitDescriptor": "µM", "reportedValue": 15.9}
{"compound": "COc1cc(O)cc(-c2cc3cc(O)c(OC)cc3o2)c1", "observable": "IC50", "unitDescriptor": "µM", "reportedValue": 1.1}

Next compound, please.
Determine from records and report IC50 for `COc1cc2cc(-c3cc(O)cc(O)c3)oc2cc1O`
1.2

###

Target chain: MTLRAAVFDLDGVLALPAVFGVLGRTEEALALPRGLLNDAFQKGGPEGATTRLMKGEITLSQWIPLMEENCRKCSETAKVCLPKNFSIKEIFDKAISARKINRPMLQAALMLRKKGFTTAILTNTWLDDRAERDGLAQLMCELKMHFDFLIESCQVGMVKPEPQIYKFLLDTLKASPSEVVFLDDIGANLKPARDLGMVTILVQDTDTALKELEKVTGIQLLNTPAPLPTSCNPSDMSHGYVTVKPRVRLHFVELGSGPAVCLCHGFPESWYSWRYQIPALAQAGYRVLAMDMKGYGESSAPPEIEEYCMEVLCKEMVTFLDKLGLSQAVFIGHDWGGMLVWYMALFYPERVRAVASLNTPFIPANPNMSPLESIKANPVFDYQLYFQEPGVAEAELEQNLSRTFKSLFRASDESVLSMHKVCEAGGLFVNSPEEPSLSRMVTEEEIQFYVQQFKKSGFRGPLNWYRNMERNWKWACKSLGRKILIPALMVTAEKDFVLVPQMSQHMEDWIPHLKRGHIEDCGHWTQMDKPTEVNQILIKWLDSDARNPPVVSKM
pKi: −log10 of the molar value.
Where pKi equals or exceeds 6, the correct label is Yes; where it does not, the label is No.

{"compound": "OCC1OC(Oc2cc(O)cc(-c3cc4ccc(O)cc4o3)c2)C(O)C(O)C1O (stereo not drawn) [Compound 7, moracin M 3’-O-β-glucopyranoside]", "group": "No"}

pKi >= 6 for COc1cc2ccc(=O)oc2cc1O [Compound 2, scopoletin] ?
Yes

pKi >= 6 for COc1cc2cc(-c3cc(O)cc(O)c3)oc2cc1O [Compound 5, moracin J] ?
No
